- Experiment summary: Oral bioavailability in Sprague-Dawley rat at 6 mg/kg/day, IG administered for 7 consecutive days by LC-MS/MS analysis
- Format: ADME, organism-based
- Conditions used: in vivo, time 7 day
Measured quantity: bioavailability (%)

>  <Smiles string>
CS(=O)(=O)O.[2H]C([2H])=CC(=O)Nc1cc(Nc2nccc(-c3cn(C([2H])([2H])[2H])c4ccccc34)n2)c(OC)cc1N(C)CCN(C)C

>  <Recorded value>
29.6

$$$$

###

half-life at 1 h by entry:
- Experiment summary: in vitro
- Conditions used: human, liver microsomes
Measured quantity: half-life at 1 h (h)

>  <Compound>
C=CC(=O)Nc1cc(Nc2nccc(-c3cn(C)c4ccccc34)n2)c(OC)cc1N(C)CCN(C)C [OSIMERTINIB]

>  <Measured quantity>
half-life at 1 h

>  <Recorded value>
2.86

$$$$
>  <Compound>
CS(=O)(=O)O.[2H]C([2H])=CC(=O)Nc1cc(Nc2nccc(-c3cn(C([2H])([2H])[2H])c4ccccc34)n2)c(OC)cc1N(C)CCN(C)C

>  <Measured quantity>
half-life at 1 h

>  <Recorded value>
2.4

$$$$

###

- Experiment summary: Intrinsic clearance in Sprague-Dawley rat liver microsomes preincubated for 10 mins under shaking condition followed by NADPH generating system addition and measured up to 60 mins by LC-MS/MS analysis
- Assay type: ADME, Microsome
- Conditions used: 1 h, time <=70 min
Measured quantity: CLint

>  <Smiles string>
C=CC(=O)Nc1cc(Nc2nccc(-c3cn(C)c4ccccc34)n2)c(OC)cc1N(C)CCN(C)C

>  <Measured quantity>
CLint

>  <Recorded value>
37.6 µL/min/mg

$$$$
>  <Smiles string>
CS(=O)(=O)O.[2H]C([2H])=CC(=O)Nc1cc(Nc2nccc(-c3cn(C([2H])([2H])[2H])c4ccccc34)n2)c(OC)cc1N(C)CCN(C)C

>  <Measured quantity>
CLint

>  <Recorded value>
40 µL/min/mg

$$$$
